# target of assay: CDK2 (Homo sapiens, UniProt P24941)
# Construct: endogenous in cells; host or cells: OVCAR3 cells
# protocol notes: Phospho-RB measurement in OVCAR3 cells (HTRF phospho-RB cellular kit)
# Format: cell-based
# recorded conditions: inhibition of RB phosphorylation at S807/811 (HTRF, TR-FRET ratio 665/620), 24 h compound treatment, 0.3 to 10,000 nM
readout name: IC50 (nM)

Reference set, count: 2
>>> data_value("CC(C)(C)c1nc(-c2cccc(NS(=O)(=O)N3CCc4ccncc43)c2F)c(-c2ccnc(NC3CCN(S(C)(=O)=O)CC3)n2)s1")
685
>>> data_value("C[C@@H]1Cc2ccccc2N1S(=O)(=O)Nc1cccc(-c2nc(C(C)(C)C)sc2-c2ccnc(NC3CCN(S(=O)(=O)N4CCNCC4)CC3)n2)c1F")
622

(A) CN1CCN(S(=O)(=O)Nc2cccc(-c3nc(C45CC(C4)C5)sc3-c3ccnc(NC4CC5(C4)CS(=O)(=O)C5)n3)c2F)c2ccccc21
(B) CN(C)CCN(C)S(=O)(=O)N1CCC(Nc2nccc(-c3sc(C(C)(C)C)nc3-c3cccc(NS(=O)(=O)N4CCNc5ccccc5C4)c3F)n2)CC1
(C) CC(C)(C)c1nc(-c2cccc(NS(=O)(=O)N3CCOc4ccccc4C3)c2F)c(-c2ccnc(NC3CCN(S(=O)(=O)N4CCNCC4)CC3)n2)s1
(D) O=S1(=O)CC2(CC(Nc3nccc(-c4sc(C56CC(C5)C6)nc4-c4cccc(NS(=O)(=O)N5Cc6cccc(C(F)F)c6C5)c4F)n3)C2)C1
In: Reorder the items by IC50, least to greatest. // format: requested-order list of labels
Out: D, A, B, C
(D: 71.9 nM, A: 130 nM, B: 291 nM, C: 636 nM)

---

# target of assay: CDK2 (Homo sapiens, UniProt P24941)
# Construct: endogenous in cells; host or cells: OVCAR3 cells
# protocol notes: Phospho-RB measurement in OVCAR3 cells (HTRF phospho-RB cellular kit)
# Format: cell-based
# recorded conditions: inhibition of RB phosphorylation at S807/811 (HTRF, TR-FRET ratio 665/620), 24 h compound treatment, 0.3 to 10,000 nM
pIC50: −log10 of the molar value.
readout name: pIC50

Example entries begin here.
>>> data_value("CN1CCN(S(=O)(=O)N2CCC(Nc3nccc(-c4sc(C(C)(C)C)nc4-c4cccc(NS(=O)(=O)N(C)C5CC5)c4F)n3)CC2)CC1")
5.92
>>> data_value("COc1cc2c(cc1OC)CN(S(=O)(=O)Nc1cccc(-c3nc(C(C)(C)C)sc3-c3ccnc(NC4CCN(S(C)(=O)=O)CC4)n3)c1F)C2")
6.49
>>> data_value("C[C@@H]1c2ccccc2CN1S(=O)(=O)Nc1cccc(-c2nc(C(C)(C)C)sc2-c2ccnc(NC3CCN(S(C)(=O)=O)CC3)n2)c1F")
6.57

(I) CC(C)(C)OC(=O)N1CCN(c2ccc(Nc3nccc(-c4sc(C(C)(C)C)nc4-c4cccc(NS(=O)(=O)N5CCc6ccc(C#N)cc65)c4F)n3)cc2)CC1
(II) CN(C)Cc1cccc2c1CN(S(=O)(=O)Nc1cccc(-c3nc(C(C)(C)C)sc3-c3ccnc(NC4CC5(C4)CS(=O)(=O)C5)n3)c1F)C2
(III) CS(=O)(=O)[C@H]1CC[C@H](Nc2nccc(-c3sc(C4(C(F)(F)F)CC4)nc3-c3cccc(NS(=O)(=O)N4CCc5ccc(Cl)cc54)c3F)n2)CC1
In: Descending sort on pIC50 required. Arrange the labels as the request states and list them.
Out: III, II, I
(III: 6.70, II: 5.97, I: 5.47)

(I) CC(C)(C)c1nc(-c2cccc(NS(=O)(=O)N3CCC4(CCCC4)C3)c2F)c(-c2ccnc(NC3CCN(S(C)(=O)=O)CC3)n2)s1
(II) CC(C)(C)c1nc(-c2cccc(NS(=O)(=O)N3Cc4cccc(-c5ccccc5)c4C3)c2F)c(-c2ccnc(NC3CCN(S(C)(=O)=O)CC3)n2)s1
In: Would you mind telling me which has the lower recorded pIC50 between I and II ? Write down the label attached to your selection.
Out: I
(I: 5.65, II: 6.52)

---

# target of assay: CDK2 (Homo sapiens, UniProt P24941)
# Construct: endogenous in cells; host or cells: OVCAR3 cells
# protocol notes: Phospho-RB measurement in OVCAR3 cells (HTRF phospho-RB cellular kit)
# Type: cell-based
# recorded conditions: inhibition of RB phosphorylation at S807/811 (HTRF, TR-FRET ratio 665/620), 24 h compound treatment, 0.3 to 10,000 nM
pIC50: −log10 of the molar value.
readout name: pIC50

Would you please look over these solved cases?
>>> data_value("CC(C)(C)c1nc(-c2cccc(NS(=O)(=O)N3Cc4ccc(C#N)cc4C3)c2F)c(-c2ccnc(NC3CCN(S(C)(=O)=O)CC3)n2)s1")
6.55
>>> data_value("CNS(=O)(=O)N1CCC(Nc2nccc(-c3sc(C(C)(C)C)nc3-c3cccc(NS(=O)(=O)N4CCc5ccc(C#N)cc54)c3F)n2)CC1")
6.87
>>> data_value("CS(=O)(=O)[C@H]1CC[C@H](Nc2nccc(-c3sc(C4(C(F)(F)F)CC4)nc3-c3cccc(NS(=O)(=O)N4CCc5ccccc54)c3F)n2)CC1")
6.42
>>> data_value("CN(C)c1ccc2c(c1)N(S(=O)(=O)Nc1cccc(-c3nc(C45CC(C4)C5)sc3-c3ccnc(NC4CC5(C4)CS(=O)(=O)C5)n3)c1F)CC2")
6.32
>>> data_value("CC(C)(C)c1nc(-c2cccc(NS(=O)(=O)N3CCC4(CC4)C3)c2F)c(-c2ccnc(NC3CC4(C3)CS(=O)(=O)C4)n2)s1")
5.55

(a) CN(C1CCC1)S(=O)(=O)Nc1cccc(-c2nc(C(C)(C)C)sc2-c2ccnc(NC3CCN(S(=O)(=O)N4CCNCC4)CC3)n2)c1F
(b) CN1CCN(S(=O)(=O)N2CCC(Nc3nccc(-c4sc(C(C)(C)C)nc4-c4cccc(NS(=O)(=O)N5CCNc6ccccc6C5)c4F)n3)CC2)CC1
In: Which one would you say has the larger pIC50 value: a , or b ? Returns: label corresponding to the selected item.
Out: b

---

# target of assay: CDK2 (Homo sapiens)
# Construct: endogenous in cells; host or cells: OVCAR3 cells
# protocol notes: Phospho-RB measurement in OVCAR3 cells (HTRF phospho-RB cellular kit)
# Type: cell-based
# recorded conditions: inhibition of RB phosphorylation at S807/811 (HTRF, TR-FRET ratio 665/620), 24 h compound treatment, 0.3 to 10,000 nM
readout name: IC50 (nM)

(1) CN1CC2CCC(C1)N2c1nc(-c2cccc(NS(=O)(=O)N3CCc4ccc(C#N)cc43)c2F)c(-c2ccnc(NC3CC4(C3)CS(=O)(=O)C4)n2)s1
(2) CC(C)(C)c1nc(-c2cccc(NS(=O)(=O)N3CCOc4ncccc4C3)c2F)c(-c2ccnc(NC3CCN(S(C)(=O)=O)CC3)n2)s1
In: Which value of IC50 is greater, the one for 1 or the one for 2 ? Could you answer with the label of the item you picked?
Out: 2
(2: 1030 nM, 1: 62.4 nM)

---

# target of assay: CDK2 (Homo sapiens)
# Construct: endogenous in cells; host or cells: OVCAR3 cells
# protocol notes: Phospho-RB measurement in OVCAR3 cells (HTRF phospho-RB cellular kit)
# Type: cell-based
# recorded conditions: inhibition of RB phosphorylation at S807/811 (HTRF, TR-FRET ratio 665/620), 24 h compound treatment, 0.3 to 10,000 nM
readout name: IC50 (nM)

See these solved cases before continuing.
>>> data_value("CC(C)(C)c1nc(-c2cccc(NS(=O)(=O)N3Cc4ccccc4C3Cc3ccccc3)c2F)c(-c2ccnc(NC3CCN(S(C)(=O)=O)CC3)n2)s1 (stereo not drawn)")
3300
>>> data_value("CS(=O)(=O)[C@H]1CC[C@H](Nc2nccc(-c3sc(N4C5CCC4CN(CC(F)F)C5)nc3-c3cccc(NS(=O)(=O)N4CCc5ccc(C(F)(F)F)cc54)c3F)n2)CC1")
449
>>> data_value("CC(C)(C)c1nc(-c2cccc(NS(=O)(=O)N3CCc4c(C#N)cccc43)c2F)c(-c2ccnc(NC3CCN(S(=O)(=O)N4CCNCC4)CC3)n2)s1")
151
>>> data_value("O=S1(=O)CC2(CC(Nc3nccc(-c4sc(C56CC(F)(C5)C6)nc4-c4cccc(NS(=O)(=O)N5CCc6ccc(C(F)(F)F)cc65)c4F)n3)C2)C1")
111
>>> data_value("CC(C)(C)c1nc(-c2cccc(NS(=O)(=O)N3CCc4ccc(C(C)(C)O)cc43)c2F)c(-c2ccnc(NC3CC4(C3)CS(=O)(=O)C4)n2)s1")
2960
>>> data_value("N#Cc1ccc2c(c1)N(S(=O)(=O)Nc1cccc(-c3nc(N4C5CCC4COC5)sc3-c3ccnc(NC4CC5(C4)CS(=O)(=O)C5)n3)c1F)CC2")
109
>>> data_value("O=S1(=O)CC2(CC(Nc3nccc(-c4sc(C56CC(C5)C6)nc4-c4cccc(NS(=O)(=O)N5CCc6ccc(F)cc65)c4F)n3)C2)C1")
70.8
>>> data_value("CC(C)(C)c1nc(-c2cccc(NS(=O)(=O)N3CCc4ccc(C#N)cc43)c2F)c(-c2ccnc(Nc3ccc(N4CCN(C5COC5)CC4)cc3)n2)s1")
576
>>> data_value("O=S1(=O)CC2(CC(Nc3nccc(-c4sc(N5C6CCC5CN(CC(F)(F)F)C6)nc4-c4cccc(NS(=O)(=O)N5Cc6cccc(C(F)(F)F)c6C5)c4F)n3)C2)C1")
192
>>> data_value("COc1ccc2c(c1)N(S(=O)(=O)Nc1cccc(-c3nc(C45CC(C4)C5)sc3-c3ccnc(NC4CC5(C4)CS(=O)(=O)C5)n3)c1F)CC2")
208

(A) CNCCOc1cccc2c1CN(S(=O)(=O)Nc1cccc(-c3nc(C(C)(C)C)sc3-c3ccnc(NC4CCN(S(C)(=O)=O)CC4)n3)c1F)C2
(B) CC(C)(C)c1nc(-c2cccc(NS(=O)(=O)N3CCn4cncc4C3)c2F)c(-c2ccnc(NC3CCN(S(C)(=O)=O)CC3)n2)s1
(C) CC(C)(C)c1nc(-c2cccc(NS(=O)(=O)N3CCc4ccc(C(C)(C)C#N)cc43)c2F)c(-c2ccnc(NC3CC4(C3)CS(=O)(=O)C4)n2)s1
In: Sort the 3 compounds by IC50; largest first, smallest last. I'd appreciate it if you listed the labels in the requested order.
Out: A, B, C

(A) CC1(c2nc(-c3cccc(NS(=O)(=O)N4CCc5ccc(C#N)cc54)c3F)c(-c3ccnc(NC4CC5CS(=O)(=O)CC5C4)n3)s2)CCOCC1 (stereo not drawn)
(B) CC(C)(C)c1nc(-c2cccc(NS(=O)(=O)N3Cc4cccc(OCCN)c4C3)c2F)c(-c2ccnc(NC3CCN(S(C)(=O)=O)CC3)n2)s1
In: Response body: label of entry with the larger IC50; valid values A , B . State your choice using its label.
Out: B
(B: 1450 nM, A: 38.2 nM)
